# study system: NDM-1 (Klebsiella pneumoniae)
# Sequence (C7C422 31-270 limits assumed): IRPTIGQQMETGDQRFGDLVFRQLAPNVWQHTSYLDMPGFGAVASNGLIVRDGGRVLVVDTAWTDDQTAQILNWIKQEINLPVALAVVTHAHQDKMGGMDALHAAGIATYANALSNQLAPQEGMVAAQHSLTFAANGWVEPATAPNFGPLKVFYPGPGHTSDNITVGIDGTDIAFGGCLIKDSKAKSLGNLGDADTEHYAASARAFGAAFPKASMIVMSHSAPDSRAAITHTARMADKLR
# test settings: read-out: IC50(light); recombinant NDM-1, nitrocefin, light 450 nm, 20 J cm^-2
measured quantity: IC50 (µM)

INSERT INTO measurements (smiles_structure, measured_quantity, test_value) VALUES
  ('F[P-](F)(F)(F)(F)F.F[P-](F)(F)(F)(F)F.[Ru+2].c1ccc(-c2ccccn2)nc1.c1ccc(-c2ccccn2)nc1.c1ccc(-n2cnc3c4cccnc4c4ncccc4c32)cc1', 'IC50', 5.6);

----------
# protocol description: Chromatographic LogD measurement
# test settings: reversed-phase HPLC, Eclipse Plus C18 column, pH 7.4
measured quantity: chromatographic logD

INSERT INTO results (smiles_structure, test_value) VALUES
  ('Cl.Cl.Nc1cccc(-c2cc(C(=O)O)nc(C(=O)O)c2)c1', -1.32);
